# assayed-target: UniProt:P68400
# Sequence (P68400 whole entry, looked up): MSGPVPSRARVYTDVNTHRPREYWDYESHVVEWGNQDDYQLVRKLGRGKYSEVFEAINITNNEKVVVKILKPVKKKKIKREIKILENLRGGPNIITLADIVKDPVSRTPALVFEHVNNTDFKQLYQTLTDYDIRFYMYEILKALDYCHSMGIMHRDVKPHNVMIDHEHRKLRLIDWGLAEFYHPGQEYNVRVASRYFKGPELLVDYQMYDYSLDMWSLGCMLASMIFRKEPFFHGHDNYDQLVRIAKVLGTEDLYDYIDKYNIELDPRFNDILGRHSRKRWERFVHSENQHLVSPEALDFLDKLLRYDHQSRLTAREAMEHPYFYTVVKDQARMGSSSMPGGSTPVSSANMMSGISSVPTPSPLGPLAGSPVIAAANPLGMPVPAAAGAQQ
# experiment: radiometric filter-binding kinase assay, Kinase HotSpot
# experimental-conditions: compound 0.5 µM; ATP 10 µM
Below, each of the compounds is paired with its reported residual activity value.
Hi! Could you send only the number? It should be in %, unit omitted.

COc1cc2ncnc(N3CCN(C(=O)Nc4ccc(Oc5ccccc5)cc4)CC3)c2cc1OC    96.2
CCn1cnc2c(Nc3cccc(Cl)c3)nc(N[C@@H]3CCCC[C@@H]3N)nc21    84.2

Shifting focus to the compound that follows.
Cc1nc2cc3nc(-c4cccs4)cnc3cc2n1C yielded residual activity of 101

---

# assayed-target: MAP3K7 TAB1 (human) (UniProt O43318+Q15750)
# Sequence (O43318 whole entry, looked up): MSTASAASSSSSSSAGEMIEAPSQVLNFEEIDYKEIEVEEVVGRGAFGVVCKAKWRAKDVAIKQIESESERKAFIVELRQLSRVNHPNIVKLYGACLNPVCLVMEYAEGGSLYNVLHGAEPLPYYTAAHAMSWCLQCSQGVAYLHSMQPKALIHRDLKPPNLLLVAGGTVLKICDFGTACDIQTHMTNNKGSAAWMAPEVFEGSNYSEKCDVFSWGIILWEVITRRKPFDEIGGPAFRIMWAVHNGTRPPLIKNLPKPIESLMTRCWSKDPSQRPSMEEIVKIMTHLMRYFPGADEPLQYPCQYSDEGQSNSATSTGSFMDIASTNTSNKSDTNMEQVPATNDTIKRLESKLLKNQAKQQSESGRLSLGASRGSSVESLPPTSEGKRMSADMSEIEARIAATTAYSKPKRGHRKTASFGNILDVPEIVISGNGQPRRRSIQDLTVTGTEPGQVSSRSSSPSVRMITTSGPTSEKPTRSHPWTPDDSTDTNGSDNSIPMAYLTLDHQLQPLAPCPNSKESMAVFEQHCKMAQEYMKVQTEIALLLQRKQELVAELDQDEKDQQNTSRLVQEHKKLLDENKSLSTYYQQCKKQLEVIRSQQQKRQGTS
# Sequence (Q15750 whole entry, looked up): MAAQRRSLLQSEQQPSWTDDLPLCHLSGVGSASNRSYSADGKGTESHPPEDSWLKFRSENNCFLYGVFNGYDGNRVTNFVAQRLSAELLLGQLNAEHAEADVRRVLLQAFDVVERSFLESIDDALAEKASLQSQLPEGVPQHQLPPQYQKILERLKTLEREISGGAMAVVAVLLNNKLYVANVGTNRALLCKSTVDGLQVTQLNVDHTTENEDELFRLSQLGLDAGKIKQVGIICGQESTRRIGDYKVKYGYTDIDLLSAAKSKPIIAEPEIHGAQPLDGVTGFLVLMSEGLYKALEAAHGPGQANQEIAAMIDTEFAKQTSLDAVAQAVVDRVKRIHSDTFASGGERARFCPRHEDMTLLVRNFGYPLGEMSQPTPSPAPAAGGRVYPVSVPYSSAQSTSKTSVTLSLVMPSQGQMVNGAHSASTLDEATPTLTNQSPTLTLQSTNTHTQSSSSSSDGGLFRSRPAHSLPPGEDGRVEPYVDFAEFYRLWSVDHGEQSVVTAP
# experiment: radiometric filter-binding kinase assay, Kinase HotSpot
# experimental-conditions: compound 0.5 µM; ATP 10 µM
readout-type: residual activity (%)
Write the answer as a number in %, unit excluded.

O=C1NC(=O)/C(=C\c2ccc3nccnc3c2)S1    98.7

The compound Nc1nnc2[nH]c3ccccc3nc1-2 on MAP3K7 TAB1 (human) (UniProt O43318+Q15750): residual activity was 100
